These data points were gathered from patent US11999746B2.

Field: IC50. Provide a value for each of the molecules that follow.
target-system: recombinant human Lp-PLA2 (Homo sapiens, UniProt Q13093)
Sequence (Q13093 22-441): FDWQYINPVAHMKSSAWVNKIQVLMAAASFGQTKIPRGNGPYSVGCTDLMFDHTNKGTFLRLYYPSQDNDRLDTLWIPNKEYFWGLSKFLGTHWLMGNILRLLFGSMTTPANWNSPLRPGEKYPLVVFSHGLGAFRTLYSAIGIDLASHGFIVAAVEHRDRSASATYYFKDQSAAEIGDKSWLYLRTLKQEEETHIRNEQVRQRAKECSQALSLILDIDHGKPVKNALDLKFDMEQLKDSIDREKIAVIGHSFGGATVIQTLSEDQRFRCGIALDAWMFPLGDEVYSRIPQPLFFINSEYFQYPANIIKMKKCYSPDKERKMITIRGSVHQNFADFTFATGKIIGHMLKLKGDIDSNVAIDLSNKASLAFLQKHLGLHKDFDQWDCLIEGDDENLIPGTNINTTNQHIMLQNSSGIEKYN
protocol: (1a) PED6 assay, recombinant human Lp-PLA2 (rhLp-PLA2)
Assay type: biochemical
settings: Examples 1-167 and 413-430 were tested here, one experiment or average of multiple experiments, read-out: rhLp-PLA2 (pIC50) (converted)
Excerpt: (1) Recombinant Human Lp-PLA2 Assays (rhLp-PLA2) N-((6-(2,4-Dinitrophenyl)amino)-hexanoyl)-2-(4,4-difluoro-5,7-dimethyl-4-bora-3a,4a-diaza-s-indacene-3-pentanoyl)-1-hexadecanoyl-sn-glycero-3-phosphoethanolamine, triethylammonium salt (PED6) is a commercially available fluorescently-labeled phospholipid, which is commercially available from Invitrogene and Molecular Probes. […] Upon cleavage with Lp-PLA2, the Bodipy FL group is liberated and then may result in an increase in fluorescence. […]

// sample O=c1nc(OCCc2cccs2)cc2n1C[C@@H]1CCCCN21 , its IC50 was ≤ 100 nM

For record O=c1nc(OCc2cccc(F)c2F)cc2n1C[C@@H]1CCCCN21 the listed IC50 is ≤ 100 nM

Sample O=c1nc(OCc2ccc(Oc3ccc(F)c(F)c3)c(F)c2)cc2n1CC1CCCCN21 (stereo not shown) ; IC50 observed: ≤ 100 nM

// field: IC50; key: O=c1nc(OCc2cc(F)c(Oc3ccnc(C(F)(F)F)c3)c(F)c2)cc2n1CC1CCCN21 (stereo not shown) ; value = ≤ 1 nM
